Test system: 786-0
Assay: NCI tumour cell line growth inhibition, 48 h
Active and inactive are the calls of the source. Rule as the data show it: active = GI50 up to about 1.1 µM and inactive = higher.
Please respond with reported GI50 for every item in the list.

These solved cases illustrate the format of a correct answer.
| MOLECULE | GI50 |
| --- | --- |
| COc1ccc(-c2cs/c(=N\c3ccccc3)n2CC(O)c2ccc([N+](=O)[O-])cc2)cc1 (stereo not given) | > 100 µM (inactive) |
| N#CCCN(c1ccc(-c2nnc(NC(=O)CNNC(=O)CC(=O)Nc3ccccc3)s2)cc1)S(=O)(=O)c1ccccc1 | > 100 µM (inactive) |
| NCCN(CCN)/[N+]([O-])=N/O | > 100 µM (inactive) |
| c1ccc2c(c1)cc1n2CC2CN=NC12 (stereo not given) | > 100 µM (inactive) |
| CC(C)=CCC/C(C)=C/CC/C(C)=C/C1CCC(=O)C1(C)C (stereo not given) | 17.9 µM (inactive) |

Hi there! I need GI50 for each item below, if you can.
1. O=C1/C(=C/c2ccccc2O)N=C(c2ccccc2)N1c1nc2ccccc2s1
2. c1ccc2c(CN3CCC(C4CCN(Cc5cccc6ccccc56)CC4)CC3)cccc2c1
3. Cc1cc(Cl)ccc1NC(=O)C(=O)C(C(=O)c1ccccc1)C1OC(=O)c2ccccc21 (stereo not given)
4. CC(=O)/C(=N\O)C(=O)NCCc1ccccc1
5. CCCc1ccc(/N=C\c2cc(OC)c(OC)c(OC)c2)cc1

["14.5 µM (inactive)", "16.3 µM (inactive)", "> 100 µM (inactive)", "68.2 µM (inactive)", "> 100 µM (inactive)"]

* * *

Tested on: DMS-114
Experiment: NCI tumour cell line growth inhibition, 48 h
Activity calls are given as the source filed them. Cut-off read from the data, not from the text of the source: active = GI50 up to about 1.1 µM and inactive = higher.
EXPERIMENTAL_ENDPOINT: GI50

| MOLECULE | REPORTED_RESULT |
| --- | --- |
| COc1cc2ccnc(-c3n[nH]c4cc(OC)c(OC)cc34)c2cc1OC | > 100 µM (inactive) |
| CC(=O)/C(=N\O)C(=O)NCCc1ccccc1 | 43.7 µM (inactive) |
| CC(C)(CN1C(=O)C(Cl)=C(Cl)C1=O)CN1C(=O)C(Cl)=C(Cl)C1=O | 9.75 µM (inactive) |
| CC(=O)N1CCC(=O)/C(=C/c2ccccc2)C1 | 15.8 µM (inactive) |
| Cc1ccc(SSCCCS(=O)O)cc1 | 15.9 µM (inactive) |

Quick one: give me GI50 for each item below, same order please.
1. COc1ccc(C23C(=O)c4ccccc4N2O[C@H]2C(=O)N(c4ccccc4)C(=O)[C@H]23)cc1 (some centres not stated)
2. Nc1ncnc2c1ncn2[C@@H]1O[C@H](COP(=O)(O)O)[C@@H](O)[C@@H]1O

1: > 100 µM (inactive); 2: > 50 µM (inactive)

* * *

System: HL-60
Assay: NCI tumour cell line growth inhibition, 48 h
The source made the active and inactive calls. No stated cut-off is given here; in the data, active = GI50 up to about 1.1 µM and inactive = higher.
Your answer must be one of the following: Y for active, N for inactive

Which outcome was entered for the molecule COC(=O)c1ccccc1/C=C1\Cc2ccc3c(c2C1=O)CCC3 in this test?
N

Moving on to the next molecule: O=C1/C(=C/c2ccccc2O)N=C(c2ccccc2)N1c1nc2ccccc2s1
N

Next record, please: COC(=O)c1c(C)ccc2c(O)c3c(cc12)C(=O)c1c2c(cc(O)c1C3=O)C1(C)OC(C)(O2)C(O)C(N(C)C)C1O (stereo not given)
N

What would you report for Cc1c2ccccc2cc2cccc[n+]12 ?
N

Queued: O=C(O)c1cc2c3c(c1)[C@H]1C=CC[C@H]1CN3CC1CC=CC21 (stereo not given in full)
N

// same read-out, input: CCN1CCC(O)(/C=C/c2ccc(Cl)c(Cl)c2)C(C(=O)/C=C/c2ccc(Cl)c(Cl)c2)C1 (stereo not given)
Y

Please give the result for Cc1cc(Cl)ccc1NC(=O)C(=O)C(C(=O)c1ccccc1)C1OC(=O)c2ccccc21 (stereo not given) too.
N

Similarly, c1ccc2c(c1)cc1n2CC2CN=NC12 (stereo not given) ?
N

Try Cc1nc(N)c(N2CCN(S(N)(=O)=O)CC2)c(O)n1 next.
N

// query: CC(C)C(=O)/C=C/c1ccccc1
N

* * *

Tested on: IGROV-1
Test: NCI tumour cell line growth inhibition, 48 h
Activity calls are given as the source filed them. Rule as the data show it: active = GI50 up to about 1.1 µM and inactive = higher.
The categories you may choose from are true (1) = active, false (0) = inactive

For orientation, consider the following solved cases.
| COMPOUND | TARGET_OR_TEST_SYSTEM | CAT |
| --- | --- | --- |
| CO/N=C1\CC(C)N2C(=O)C(C(C)C)NC(=O)C(NC(=O)c3c4nc5c(C(=O)NC6C(=O)NC(C(C)C)C(=O)N7C(C)CC(O)C7C(=O)N(C)CC(=O)N(C)C(C(C)C)C(=O)OC6C)ccc(C)c5oc-4c(C)c(=O)c3N)C(CO)OC(=O)C(C)N(C)C(=O)CN(C)C(=O)C12 (stereo not drawn) | IGROV-1 | true (1) |
| O=C1CC(c2c[nH]c3ccccc23)C(=O)N1c1ccccc1 (stereo not drawn) | IGROV-1 | false (0) |
| CN(C(=O)Cc1ccccc1)n1cnn(CC(=O)OC(C)(C)C)c1=S | IGROV-1 | false (0) |
| CCOC(=O)C(Cc1cc(OC)c(CC(C(=O)OCC)C(=O)OCC)cc1OC)C(=O)OCC | IGROV-1 | false (0) |
| COC(=O)/C=C\[C@@H]1[C@H](C)N1S(=O)(=O)c1ccc(C)cc1 (stereo partly drawn) | IGROV-1 | false (0) |

Please share the test call associated with COC(=O)c1cc(C)n(CN(Cn2nc(C(=O)OC)cc2C)c2ccccc2)n1 .
false (0)

Input COc1ccc(/C(Cl)=C(\CNc2ccccn2)c2ccccc2)cc1OC
false (0)

Repeat for the following compound: O=C(c1nc2ccccc2nc1O)C(O)c1ccco1 (stereo not drawn)
false (0)

* * *

Tested on: 786-0
Assay: NCI tumour cell line growth inhibition, 48 h
The source made the active and inactive calls. No stated cut-off is given here; in the data, active = GI50 up to about 1.1 µM and inactive = higher.
EXPERIMENTAL_ENDPOINT: GI50

Record excerpt, results attached:
| MOLECULE | GI50 |
| --- | --- |
| CC1CC/C(=C\c2ccc(F)cc2)C2=C1C(c1ccc(F)cc1)N1C(=O)CSC1=N2 (stereo not given) | > 100 µM (inactive) |
| CC1(C)OCC2OC3([C@H](O)CCO)OC(C)(C)OC3C2O1 (stereo not given in full) | > 100 µM (inactive) |
| C=CCN1C2Cc3cc(OC)c(OC)cc3C1Cc1cc(OC)c(OC)cc12 | > 100 µM (inactive) |
| COC1=CC(=O)c2c(O)c3c(c(O)c2C1=O)OC1(Oc2c(cc4cc(C)oc(=O)c4c2O)CC1O)C3O (stereo not given) | 40 µM (inactive) |

Continue with the next molecule.
Param item = O=C(Nc1cccc(C(F)(F)F)c1)C(=O)C(C(=O)c1ccc(Cl)c(Cl)c1)C1OC(=O)c2ccccc21 (stereo not given) ; retrieve measured GI50.
37.7 µM (inactive)

* * *

Test system: SNB-19
Assay: NCI tumour cell line growth inhibition, 48 h
The source made the active and inactive calls. Cut-off read from the data, not from the text of the source: active = GI50 up to about 1.1 µM and inactive = higher.
Use one of these outcomes when replying: Yes = active, No = inactive

| COMPOUND | CAT |
| --- | --- |
| C=C=C(CC1CCCCC1=O)S(=O)(=O)c1ccccc1 (configuration not stated) | No |
| COC(=O)/C(C#N)=C1\CCC(OC)N1 (configuration not stated) | No |
| CCCCCCCCNC(=O)SCCCC | No |
| N#C/C(=N/Nc1[nH]cnc1C(N)=O)C(=O)Nc1ccccc1 | No |
| COc1ccc2c(c1)CCc1cc(OC)ccc1/[N+]([O-])=[N+]\2[O-] | No |

Fill in: this test's call for CC(=O)OCCn1c(Cc2ccc([N+](=O)[O-])cc2)nn(C(C)=O)c1=O is ___
No

What do you get for CC1(C)CC(=O)C2=C(C1)N(c1ccccc1)C1(O)C=CC(O)=C3C(=O)c4ccccc4C(=O)C321 (configuration not stated) ?
No

And then C#Cc1c(C)c(/C=C/C(C)=C\C(=O)OC)n(C)c1C , what is it?
No

Input O=C(O)c1cc2c3c(c1)[C@H]1C=CC[C@H]1CN3CC1CC=CC21 (some centres not stated)
No

// query: Cc1cc(C)nc(SCCc2cccc[n+]2C)n1
No

Here is the next compound: O=C1NC2(O)c3ccccc3C(=O)C2(O)N1c1ccccc1 (configuration not stated)
No

* * *

System: A498
Assay: NCI tumour cell line growth inhibition, 48 h
Calls of active or inactive are those of the source. Rule as the data show it: active = GI50 up to about 1.1 µM and inactive = higher.
EXPERIMENTAL_ENDPOINT: GI50

Here's what some known entries look like.
| MOLECULE | GI50 |
| --- | --- |
| COC(=O)[C@H]1CO[C@H]2C/C(C)=C/CC/C(C)=C/CC[C@@]3(C)O[C@@H]3C[C@H]21 | 22.9 µM (inactive) |
| c1ccc2sc(C3(N4CCCC4)CCCCCC3)cc2c1 | 16.6 µM (inactive) |
| Cc1cc(Br)cc(C)c1NC(=O)C(=O)C(C(=O)c1ccc2ccccc2c1)C1OC(=O)c2ccccc21 (centres undefined) | 12 µM (inactive) |
| Cc1ccc(-c2c(C#N)c(-c3ccc([N+](=O)[O-])cc3)c(C#N)c(=O)n2NS(=O)(=O)c2ccccc2)cc1 | 57.7 µM (inactive) |
| Cc1ccc(S(=O)(=O)N2CCCN(S(=O)(=O)c3ccc(C)cc3)CCN(S(=O)(=O)c3ccc(C)cc3)CCCSCC2)cc1 | > 100 µM (inactive) |

Go through the items and report each one's GI50.
1. Cc1cc(C)n(C2=NS(=O)(=O)c3ccccc3N2C)n1
2. O=c1c(Cl)c(Cl)cnn1CCCl

1. > 100 µM (inactive)
2. 13.1 µM (inactive)

Parameters: items (list). Returns: GI50 for each item.
1. CN(C)c1ccc(/N=C2/NC(=N\c3ccccc3)/C(=N/c3ccccc3)S2)cc1
2. C#CCn1c(=O)c(C)cn(/C(=C\C(=O)OCC)C(=O)OCC)c1=O

1. 87.3 µM (inactive)
2. 17.2 µM (inactive)
